Each entry below carries its reported GI50.
Tested on: DMS-114
Experiment: NCI tumour cell line growth inhibition, 48 h
Calls of active or inactive are those of the source. Rule as the data show it: active = GI50 up to about 1.1 µM and inactive = higher.
observable: GI50

>  <compound>
CC12CCC(=O)C[C@H]1CCC(OC=O)C2Br (stereo partly specified)

>  <val>
> 100 µM (inactive)

$$$$
>  <compound>
Cc1ccc(NC(=O)CC/C(CC(=O)C(C)(C)C)=N\Nc2ccc([N+](=O)[O-])cc2[N+](=O)[O-])cc1C

>  <val>
30 µM (inactive)

$$$$
>  <compound>
C[N+](C)(C)CC(=O)N/N=C(\CCC(=O)NCCc1ccccc1)CC(=O)c1ccccc1

>  <val>
> 100 µM (inactive)

$$$$
>  <compound>
CS/C(=N\c1ccccc1Cl)NC(=O)c1ccc(Br)cc1

>  <val>
> 100 µM (inactive)

$$$$
>  <compound>
COC(=O)C1=C(C(=O)OC)C2C(C)=CC(C)=CN2C(C#N)=C(SC)S1 (stereo unspecified)

>  <val>
22.6 µM (inactive)

$$$$
>  <compound>
CC(C)=CCc1c(O)cc(O)c2c1OC(c1ccc(O)cc1)C(O)C2=O (stereo unspecified)

>  <val>
39.4 µM (inactive)

$$$$

Taken from ChEMBL document CHEMBL1201862.
